Target: T1, Glycoprotein VI extracellular domain (Gln21-Lys267) (Homo sapiens, UniProt Q9HCN6 SEQ:1-247)
T1 chain: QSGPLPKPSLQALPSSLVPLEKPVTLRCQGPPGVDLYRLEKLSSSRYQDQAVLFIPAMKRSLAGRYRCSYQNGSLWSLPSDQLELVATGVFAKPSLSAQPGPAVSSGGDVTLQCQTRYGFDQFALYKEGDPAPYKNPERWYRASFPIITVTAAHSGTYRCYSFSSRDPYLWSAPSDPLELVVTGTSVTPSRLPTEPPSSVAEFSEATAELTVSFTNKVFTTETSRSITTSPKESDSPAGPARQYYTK
Experiment: filter; equivalent to full-length EF-1
Settings: tags: C-terminal His6; R&D Systems 3627-GP; label: 5'-32P
MEASURED_QUANTITY: Kd

**Q:** Determine its reported Kd: GGGAGGACGAUGCGGCAAUCGAAGCUGCAUCCAGCGUAAGCCUUCC (ssRNA, 2'-F C and U; 2'-OH A and G) [EF-1 T1 (RB426)]
**A:** > 40 nM
